Study system: AeKir1 (Aedes aegypti, UniProt L0EQS9)
Sequence (L0EQS9 entry or part of it): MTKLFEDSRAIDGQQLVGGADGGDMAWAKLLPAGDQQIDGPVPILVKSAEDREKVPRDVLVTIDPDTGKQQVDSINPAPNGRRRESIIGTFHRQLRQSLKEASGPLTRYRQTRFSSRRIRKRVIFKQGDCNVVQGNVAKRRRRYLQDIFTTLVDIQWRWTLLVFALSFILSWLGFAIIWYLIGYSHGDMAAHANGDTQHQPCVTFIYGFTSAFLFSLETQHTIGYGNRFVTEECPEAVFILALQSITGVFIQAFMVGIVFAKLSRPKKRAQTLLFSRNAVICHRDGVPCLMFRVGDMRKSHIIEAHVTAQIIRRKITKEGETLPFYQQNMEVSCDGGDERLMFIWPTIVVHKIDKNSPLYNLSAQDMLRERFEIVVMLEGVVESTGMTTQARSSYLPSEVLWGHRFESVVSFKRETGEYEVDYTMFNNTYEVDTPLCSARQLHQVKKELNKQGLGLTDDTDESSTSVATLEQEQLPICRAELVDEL
Test name: Tl+ flux assay in T-REx-HEK293-AeKir1 cells
Assay type: cell-based
Protocol conditions: Fig. 2C; 95% CI: 254.4–390.2 nM; n = 4 independent experiments in triplicate; read-out: IC50 (AeKir1, Tl+ flux)
Readout: pIC50
One number for each entry, as −log10 of the molar value.

# input Need pIC50, item CCC(=O)N1c2ccc(S(=O)(=O)Nc3cccc(OC)c3)cc2CC1C (stereo not shown)
# output 6.50

----------
Study system: UniProt:L0EQ40
Sequence (L0EQ40 entry or part of it): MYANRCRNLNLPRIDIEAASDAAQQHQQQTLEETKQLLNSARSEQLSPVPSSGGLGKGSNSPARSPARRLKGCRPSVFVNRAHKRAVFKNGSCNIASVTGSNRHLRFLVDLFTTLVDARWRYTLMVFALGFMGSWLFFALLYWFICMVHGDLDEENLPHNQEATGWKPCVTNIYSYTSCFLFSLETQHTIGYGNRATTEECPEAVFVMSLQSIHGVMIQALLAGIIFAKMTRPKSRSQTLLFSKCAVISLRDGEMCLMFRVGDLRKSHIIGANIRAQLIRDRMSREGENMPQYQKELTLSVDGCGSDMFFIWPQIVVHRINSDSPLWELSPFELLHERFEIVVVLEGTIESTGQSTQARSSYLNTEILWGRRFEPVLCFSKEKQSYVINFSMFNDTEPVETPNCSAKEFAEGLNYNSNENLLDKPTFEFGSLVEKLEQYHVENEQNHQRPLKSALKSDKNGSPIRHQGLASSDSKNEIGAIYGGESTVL
Test name: Two-electrode electrophysiology of Xenopus oocytes expressing AeKir2B
Protocol conditions: inward current at −140 mV, 95% CI: 31.7–64.2 µM, n = 4–5 oocytes per concentration, read-out: IC50 of AeKir2B current inhibition
Readout: pIC50
Give bare numbers, as −log10 of the molar value.

# input Need pIC50, item CCC(=O)N1c2ccc(S(=O)(=O)Nc3cccc(OC)c3)cc2CC1C (stereo not shown)
# output 4.35

----------
Study system: Kir2.1 (Homo sapiens, UniProt P63252)
Sequence (P63252 1-427): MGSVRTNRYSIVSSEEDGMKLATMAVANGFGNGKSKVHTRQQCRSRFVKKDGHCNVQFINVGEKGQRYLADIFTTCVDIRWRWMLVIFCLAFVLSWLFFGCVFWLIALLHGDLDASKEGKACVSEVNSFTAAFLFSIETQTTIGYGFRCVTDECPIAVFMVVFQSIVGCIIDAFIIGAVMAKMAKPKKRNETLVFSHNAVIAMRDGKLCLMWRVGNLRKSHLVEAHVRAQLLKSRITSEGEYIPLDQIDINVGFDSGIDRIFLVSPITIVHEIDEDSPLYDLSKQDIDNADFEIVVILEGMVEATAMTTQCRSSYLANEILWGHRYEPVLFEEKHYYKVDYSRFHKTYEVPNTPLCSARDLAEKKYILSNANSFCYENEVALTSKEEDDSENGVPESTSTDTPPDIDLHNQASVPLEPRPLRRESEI
Test name: Tl+ flux selectivity assay, Kir2.1
Protocol conditions: n = 2 independent experiments in triplicate, read-out: Inhibition of Tl+ flux (IC50)
pIC50: −log10 of the molar value.
Readout: pIC50

# input Need pIC50, item CCC(=O)N1c2ccc(S(=O)(=O)Nc3cccc(OC)c3)cc2CC1C (stereo not shown) [VU625]
# output < 4.52

----------
Study system: UniProtKB P48050
Sequence (P48050 whole entry): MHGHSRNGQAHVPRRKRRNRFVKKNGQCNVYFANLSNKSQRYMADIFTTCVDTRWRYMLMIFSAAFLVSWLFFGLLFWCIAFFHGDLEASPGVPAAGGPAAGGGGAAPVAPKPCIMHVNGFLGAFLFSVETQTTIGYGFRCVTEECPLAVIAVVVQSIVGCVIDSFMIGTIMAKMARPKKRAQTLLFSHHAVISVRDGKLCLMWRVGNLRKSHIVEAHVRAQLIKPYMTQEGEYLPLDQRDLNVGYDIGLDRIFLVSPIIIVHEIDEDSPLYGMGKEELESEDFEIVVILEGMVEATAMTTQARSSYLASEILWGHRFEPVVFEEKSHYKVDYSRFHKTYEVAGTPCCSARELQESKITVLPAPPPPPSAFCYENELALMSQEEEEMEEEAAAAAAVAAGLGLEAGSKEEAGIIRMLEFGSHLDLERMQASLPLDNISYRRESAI
Test name: Tl+ flux selectivity assay, Kir2.3
Protocol conditions: n = 2 independent experiments in triplicate, read-out: Inhibition of Tl+ flux (IC50)
Readout: IC50

# input Write down the reported IC50 of CCC(=O)N1c2ccc(S(=O)(=O)Nc3cccc(OC)c3)cc2CC1C (stereo not shown) , test system: UniProtKB P48050.
# output > 30 µM
